These entries and their values trace back to patent US20230035798A1.

Target: T1, membrane LIGHT R195A (human, UniProt O43557 1-240)
T1 chain: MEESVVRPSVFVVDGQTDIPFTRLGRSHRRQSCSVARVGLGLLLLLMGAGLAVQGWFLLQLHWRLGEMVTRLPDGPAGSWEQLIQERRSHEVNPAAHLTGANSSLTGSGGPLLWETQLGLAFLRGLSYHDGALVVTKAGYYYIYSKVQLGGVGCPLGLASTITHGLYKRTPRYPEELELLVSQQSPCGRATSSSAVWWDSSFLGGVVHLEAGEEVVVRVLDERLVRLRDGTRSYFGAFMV
Experiment: flow cytometry, transfected HEK293FF, mAb at EC50
Result type: binding, % of WT (%)
State the answer as a number, implicitly in %.

Look over these answered cases.
Binder	Recorded number
2E08 (antibody, human IgG4, V domains shown, chimeric human IgG4 (S-to-P, L-to-E at 248), human CL; also called Parental 2E08) VH: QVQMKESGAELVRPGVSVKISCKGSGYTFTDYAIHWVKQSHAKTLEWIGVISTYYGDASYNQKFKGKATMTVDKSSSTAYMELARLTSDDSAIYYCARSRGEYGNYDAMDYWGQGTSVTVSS VL: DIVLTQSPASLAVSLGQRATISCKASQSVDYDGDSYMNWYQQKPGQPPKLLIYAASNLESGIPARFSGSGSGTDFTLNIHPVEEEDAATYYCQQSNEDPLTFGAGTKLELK	43
2B11 (antibody, human IgG4, V domains shown, chimeric human IgG4 (S-to-P, L-to-E at 248), human CL; also called Parental 2B11) VH: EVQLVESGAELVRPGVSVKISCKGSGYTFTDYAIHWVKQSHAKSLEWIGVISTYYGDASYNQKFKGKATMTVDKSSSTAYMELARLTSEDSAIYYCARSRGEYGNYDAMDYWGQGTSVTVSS VL: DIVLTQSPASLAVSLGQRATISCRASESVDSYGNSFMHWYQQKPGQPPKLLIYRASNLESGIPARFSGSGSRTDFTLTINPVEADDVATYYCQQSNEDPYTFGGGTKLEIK	78

Kindly review the next binder as well.
May I ask what binding, % of WT has been recorded for 3B04 (antibody, human IgG4, V domains shown, chimeric: mouse variable domains on human IgG4 HC (S-to-P and L-to-E at 248) and human CL; also called Parental 3B04; 3B04 chimeric) VH: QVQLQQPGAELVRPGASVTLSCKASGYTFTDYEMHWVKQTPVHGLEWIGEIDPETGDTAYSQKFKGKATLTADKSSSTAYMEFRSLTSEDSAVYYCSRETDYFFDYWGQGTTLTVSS VL: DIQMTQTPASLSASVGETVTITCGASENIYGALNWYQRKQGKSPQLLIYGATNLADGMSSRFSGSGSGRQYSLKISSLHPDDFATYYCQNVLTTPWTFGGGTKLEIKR ?
1
